Target: CK2A2 (Homo sapiens, UniProt P19784)
Construct: purchased Eurofins
Sequence (P19784 whole entry): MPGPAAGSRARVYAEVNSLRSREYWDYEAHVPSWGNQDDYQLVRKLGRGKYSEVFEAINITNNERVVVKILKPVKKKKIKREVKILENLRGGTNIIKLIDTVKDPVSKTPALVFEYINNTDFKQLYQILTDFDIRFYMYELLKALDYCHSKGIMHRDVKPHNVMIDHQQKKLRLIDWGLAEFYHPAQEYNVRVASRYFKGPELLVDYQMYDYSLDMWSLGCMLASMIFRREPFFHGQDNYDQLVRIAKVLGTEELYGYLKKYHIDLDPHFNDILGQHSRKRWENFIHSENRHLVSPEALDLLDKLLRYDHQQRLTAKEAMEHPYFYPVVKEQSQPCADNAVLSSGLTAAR
Assay: Radiometric kinase assay (Eurofins), CK2A2
Assay type: biochemical
Conditions: Table 11; aurones; read-out: CK2A2 RAD IC50
OBSERVATION_TYPE: IC50 (nM)

Check out these entries, answers already filled in.
So what's the measured IC50 for this one? COc1cc(/C=C2\Oc3c(ccc(OC)c3Br)C2=O)ccc1O [JKT.820A]
6

So what's the measured IC50 for this one? COc1ccc2c(c1Br)O/C(=C\c1cc(Cl)c(O)c(Cl)c1)C2=O [JKT.824A]
140

So what's the measured IC50 for this one? COc1ccc2c(c1Br)O/C(=C\c1ccc(O)c(Cl)c1)C2=O [JKT.817A]
53

So what's the measured IC50 for this one? COc1ccc2c(c1Br)O/C(=C\c1ccc(C(=O)O)cc1)C2=O [JKT.821A]
206

So what's the measured IC50 for this one? O=C1/C(=C/c2ccc(O)c(I)c2)Oc2c(Br)cc(Br)cc21 [JKT.728A]
70

So what's the measured IC50 for this one? COc1c(Br)cc2c(c1Br)O/C(=C\c1ccc(O)c(Br)c1)C2=O [JKT.759A]
44

1: COc1ccc2c(c1Br)O/C(=C\c1ccc(O)c(Br)c1)C2=O [JKT.815A]
2: COc1cc(/C=C2\Oc3c(cc(Br)c(OC)c3Br)C2=O)ccc1O [JKT.764A]
3: COc1c(Br)cc2c(c1Br)O/C(=C\c1ccc(O)c(I)c1)C2=O [JKT.813A]
Ordering criterion: IC50; begin with the maximum. Ranked list of labels, please, in the requested order.
2, 3, 1
(2: 383 nM, 3: 193 nM, 1: 26 nM)

P: COc1c(Br)cc2c(c1Br)O/C(=C\c1ccc(C(=O)O)cc1)C2=O [JKT.765A]
Q: COc1ccc2c(c1Br)O/C(=C\c1ccc(O)cc1Br)C2=O [JKT.816A]
Between the entries labeled P and Q , whose measured IC50 is lower? Provide the label of your selected option as the answer.
P

###

Biological target: CK2A1 (Homo sapiens)
Construct: purchased Eurofins
Sequence (P68400 whole entry): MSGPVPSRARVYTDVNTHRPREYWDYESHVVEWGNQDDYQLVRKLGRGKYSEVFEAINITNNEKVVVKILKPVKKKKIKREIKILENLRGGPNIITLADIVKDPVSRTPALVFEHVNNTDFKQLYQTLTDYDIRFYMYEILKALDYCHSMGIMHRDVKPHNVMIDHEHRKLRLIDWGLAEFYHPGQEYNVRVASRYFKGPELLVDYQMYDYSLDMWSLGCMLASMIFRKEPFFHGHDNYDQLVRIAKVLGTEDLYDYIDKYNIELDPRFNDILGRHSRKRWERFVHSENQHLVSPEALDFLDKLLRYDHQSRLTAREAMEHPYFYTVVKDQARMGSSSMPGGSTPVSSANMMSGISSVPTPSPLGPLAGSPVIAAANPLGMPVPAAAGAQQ
Assay: Radiometric kinase assay (Eurofins), CK2A1
Type: biochemical
Settings: Table 11; aurones; read-out: CK2A1 RAD IC50
pIC50: −log10 of the molar value.
OBSERVATION_TYPE: pIC50

Checklist item: pIC50 tested on CK2A1 (Homo sapiens), entry COc1ccc2c(c1Br)O/C(=C\c1ccc(O)c(Cl)c1)C2=O [JKT.817A] , value?
7.23

Checklist item: pIC50 tested on CK2A1 (Homo sapiens), entry COc1ccc2c(c1Br)O/C(=C\c1ccc(O)c(I)c1)C2=O [JKT.814A] , value?
6.88

Checklist item: pIC50 tested on CK2A1 (Homo sapiens), entry COc1c(Br)cc2c(c1Br)O/C(=C\c1ccc(O)c(C(F)(F)F)c1)C2=O [JKT.763A] , value?
6.22

Checklist item: pIC50 tested on CK2A1 (Homo sapiens), entry COc1ccc2c(c1Br)O/C(=C\c1ccc(O)c(Br)c1)C2=O [JKT.815A] , value?
7.33

Checklist item: pIC50 tested on CK2A1 (Homo sapiens), entry COc1ccc2c(c1Br)O/C(=C\c1ccc(O)c(C(F)(F)F)c1)C2=O [JKT.819A] , value?
6.27

I: COc1cc(/C=C2\Oc3c(cc(Br)c(OC)c3Br)C2=O)ccc1O [JKT.764A]
II: COc1ccc2c(c1Br)O/C(=C\c1ccc(C(=O)O)cc1)C2=O [JKT.821A]
III: O=C1/C(=C/c2ccc(O)c(Cl)c2)Oc2c(Br)cc(Br)cc21 [JKT.726A]
Provide the items ranked by increasing pIC50. Ranked list of labels, please, in the requested order.
II, I, III

###

Biological target: CK2A2 (Homo sapiens, UniProt P19784)
Construct: purchased Eurofins
Assay: Radiometric kinase assay (Eurofins), CK2A2
Assay type: biochemical
Settings: Table 12; read-out: CK2A2 RAD IC50
Excerpt: • ^1Radiometric kinase assay from Eurofins. Performed in astrocytes with a Promega Lumit IL-6 kit.
OBSERVATION_TYPE: IC50 (nM)

So what's the measured IC50 for this one? COc1cc(/C=C2\Oc3c(ccc(OC)c3Br)C2=O)ncc1O [Compound 1189A]
149

a: COc1nc(/C=C2\Oc3c(Br)cccc3C2=O)ccc1O [Compound 1226A]
b: COc1ccc2c(c1Br)O/C(=C\c1ccc(O)c(OC)n1)C2=O [Compound 1188A]
Which entry has a larger number for IC50, a or b ? Provide the label of your selected option as the answer.
b

###

Assay: Aqueous solubility
Format: physicochemical
Conditions: aqueous (not further specified); Table 3; read-out: Aqueous Solubility
# Lookup of reported solubility keyed by entry

Check out these entries, answers already filled in.
So what's the measured solubility for this one? COc1ccc2c(=O)cc(-c3ccc(O)c(Cl)c3)oc2c1Br [JKT.787A]
< 0.01 µM

So what's the measured solubility for this one? COc1ccc2c(=O)cc(-c3ccc(O)c(C(F)(F)F)c3)oc2c1Br [JKT.786A]
< 0.01 µM

So what's the measured solubility for this one? COc1ccc2c(=O)cc(-c3ccc(O)c(Br)c3)oc2c1Br [JKT.780A]
< 0.01 µM

So what's the measured solubility for this one? O=c1cc(-c2ccc(O)c(Br)c2)oc2c(Cl)cccc12 [JKT.777A]
14 µM

Switching to the query record.
So what's the measured solubility for this one? COc1c(Br)cc2c(=O)cc(-c3ccc(O)c(Br)c3)oc2c1Br [JKT.745A]
> 200 µM

###

Test: Aqueous solubility
Assay type: physicochemical
Settings: aqueous medium (not further specified); Table 8; read-out: Aqueous Solubility
OBSERVATION_TYPE: solubility

So what's the measured solubility for this one? O=c1[nH]c(-c2ccc(O)c(Br)c2)nc2c(Br)cc(Br)cc12 [JKT.734C]
> 200 µM

So what's the measured solubility for this one? COc1cc(-c2nc3c(Cl)cc(Cl)cc3c(=O)[nH]2)ccc1O [JKT.810A]
< 0.01 µM

So what's the measured solubility for this one? O=c1[nH]c(-c2ccc(O)c(C(F)(F)F)c2)nc2c(Cl)cc(Cl)cc12 [JKT.809A]
< 0.01 µM

So what's the measured solubility for this one? COc1nc(-c2ccc(O)c(Br)c2)nc2c(Br)cc(Br)cc12 [JKT.842A]
< 0.01 µM

Switching to the query record.
So what's the measured solubility for this one? O=c1[nH]c(-c2ccc(O)c(Cl)c2)nc2c(Br)cc(Br)cc12 [JKT.772A]
< 0.01 µM

###

Biological target: CK2A2 (Homo sapiens)
Construct: purchased Eurofins
Assay: Radiometric kinase assay (Eurofins), CK2A2
Type: biochemical
Details: Table 11; aurones; read-out: CK2A2 RAD IC50
# Lookup of reported IC50 keyed by entry

Check out these entries, answers already filled in.
So what's the measured IC50 for this one? COc1ccc2c(c1Br)O/C(=C\c1ccc(O)cc1Cl)C2=O [JKT.818A]
> 5 µM

So what's the measured IC50 for this one? O=C1/C(=C/c2ccc(O)cc2Br)Oc2c(Br)cc(Br)cc21 [JKT.758A]
> 5 µM

So what's the measured IC50 for this one? O=C1/C(=C/c2ccc(O)cc2Cl)Oc2c(Br)cc(Br)cc21 [JKT.727A]
> 5 µM

Further cases:
So what's the measured IC50 for this one? COc1c(Br)cc2c(c1Br)O/C(=C\c1cc(Cl)c(O)c(Cl)c1)C2=O [JKT.823A]
1.22 µM

So what's the measured IC50 for this one? COc1c(Br)cc2c(c1Br)O/C(=C\c1ccc(O)cc1Cl)C2=O [JKT.762A]
> 5 µM

So what's the measured IC50 for this one? COc1c(Br)cc2c(c1Br)O/C(=C\c1ccc(O)cc1Br)C2=O [JKT.760A]
> 5 µM

###

# Lookup of reported IC50 keyed by entry
Molecular target: CK2A1 (Homo sapiens)
Construct: purchased Eurofins
Experiment: Radiometric kinase assay (Eurofins), CK2A1
Assay type: biochemical
Settings: Table 11; aurones; read-out: CK2A1 RAD IC50
Text: FIGS. 4A-4F characterize flavones for in vitro and in-cell CK2 inhibition. […] Representative of two independent experiments. […] Nonlinear fit was used to calculate IC50. […] Nonlinear fit was used to calculate IC50. […] Nonlinear fit was used to calculate IC50. […] Normalized to DMSO, data are representative of three independent experiments. • ^1Radiometric kinase assay from Eurofins. Performed in astrocytes with a Promega Lumit IL-6 kit.

So what's the measured IC50 for this one? COc1c(Br)cc2c(c1Br)O/C(=C\c1cc(Cl)c(O)c(Cl)c1)C2=O [JKT.823A]
> 5 µM

So what's the measured IC50 for this one? COc1c(Br)cc2c(c1Br)O/C(=C\c1ccc(O)cc1Br)C2=O [JKT.760A]
> 5 µM

Switching to the query record.
So what's the measured IC50 for this one? O=C1/C(=C/c2ccc(O)cc2Cl)Oc2c(Br)cc(Br)cc21 [JKT.727A]
> 5 µM
